system: rCaCh; test: CVS / cardio tox rCaCh; type: binding, rat

{"COMPOUND": "Cc1c(-c2cn3cc(Cc4ccc(OC(F)(F)F)cc4)ccc3n2)[nH]c2ccccc2c1=O [Compound 63]", "Cardio tox rCaCh IC50 (µM)": "> 3.0"}
{"COMPOUND": "Cc1c(-c2cn3ccc(Cc4ccc(OC(F)(F)F)cc4)cc3n2)[nH]c2ccccc2c1=O [Compound 52]", "Cardio tox rCaCh IC50 (µM)": "~1.9"}
{"COMPOUND": "Cc1c(-c2cn3ccc(Oc4ccc(OC(F)(F)F)cc4)cc3n2)[nH]c2ccccc2c1=O [Compound 29]", "Cardio tox rCaCh IC50 (µM)": 3.3}
{"COMPOUND": "Cc1c(-c2nc3ccc(Br)cn3n2)[nH]c2ccccc2c1=O [Compound 55]", "Cardio tox rCaCh IC50 (µM)": ">10, >10, >10"}

====

Test system: Mitochondrial toxicity (Glu/Gal)
Experiment: Mitochondrial toxicity (Glu/Gal) assay
Assay type: cell-based
Set-up: key: “negative” means that in the test, it was found to have low mitotoxicity (and hence no mitotoxicity alerts); “positive” means that there were some mitotoxicity alerts; “inconclusive” means that no accurate conclusion could be drawn
Settings: mitotoxicity score
Excerpt: The compounds of the invention/examples may have advantages associated with in vitro potency, kill kinetics (i.e. bactericidal effect) in vitro, PK properties, food effect, safety/toxicity (including liver toxicity, coagulation, 5-LO oxygenase), metabolic stability, Ames II negativity, MNT negativity, aqueous based solubility (and ability to formulate) and/or cardiovascular effect e.g. on animals (e.g. anesthetized guinea pig). […]
VALUE_TYPE: Score

{"COMPOUND": "Cc1c(-c2nc3ccc(Br)cn3n2)[nH]c2ccccc2c1=O [Compound 55]", "VALUE_TYPE": "Score", "VALUE": "negative"}
{"COMPOUND": "Cc1c(-c2cn3ccc(Cc4ccc(OC(F)(F)F)cc4)cc3n2)[nH]c2ccccc2c1=O [Compound 52]", "VALUE_TYPE": "Score", "VALUE": "negative"}
{"COMPOUND": "Cc1c(-c2nc3ccc(-c4cccc(OC(F)(F)F)c4)cn3n2)[nH]c2ccccc2c1=O [Compound 7]", "VALUE_TYPE": "Score", "VALUE": "negative"}
{"COMPOUND": "Cc1c(-c2nc3ccc(CC(F)(F)F)cn3n2)[nH]c2ccccc2c1=O [Compound 20]", "VALUE_TYPE": "Score", "VALUE": "negative"}

====

Entries and their measured (ii) % OCR after cccp follow.
test system: Mycobacterium tuberculosis (strain H37Ra), cyt bd; settings: Mtb H37Ra; test compound 10 μM after Compound X 0.9 μM, then CCCP 1 μM

{"SMILES_ENTRY": "Cc1c(-c2nc3ccc(-c4ccc(C(F)(F)F)cc4)cn3n2)[nH]c2ccccc2c1=O", "READOUT_UNITS": "%", "(ii) % OCR after cccp": 40.05}
{"SMILES_ENTRY": "Cc1c(-c2nc3ccc(-c4cnc(C(F)(F)F)s4)cn3n2)[nH]c2ccccc2c1=O", "READOUT_UNITS": "%", "(ii) % OCR after cccp": 138.84}
{"SMILES_ENTRY": "Cc1c(-c2nc3ccc(CC(F)(F)F)cn3n2)[nH]c2ccccc2c1=O", "READOUT_UNITS": "%", "(ii) % OCR after cccp": 102.86}
{"SMILES_ENTRY": "Cc1c(-c2cn3cc(-c4ccc(OC(F)(F)F)cc4)ccc3n2)[nH]c2ccccc2c1=O", "READOUT_UNITS": "%", "(ii) % OCR after cccp": 129.2}
{"SMILES_ENTRY": "Cc1c(-c2nc3ccc(OCC(F)(F)F)cn3n2)[nH]c2ccccc2c1=O", "READOUT_UNITS": "%", "(ii) % OCR after cccp": 175.26}
{"SMILES_ENTRY": "Cc1c(-c2nc3ccc(N4CCC(C(F)(F)F)CC4)cn3n2)[nH]c2ccccc2c1=O", "READOUT_UNITS": "%", "(ii) % OCR after cccp": 141.23}
{"SMILES_ENTRY": "COc1cc2[nH]c(-c3nc4ccc(-c5ccc(OC(F)(F)F)cc5)cn4n3)c(C)c(=O)c2cc1Cl", "READOUT_UNITS": "%", "(ii) % OCR after cccp": 165.1}
{"SMILES_ENTRY": "Cc1c(-c2nc3ccc(-c4ccc(OC(F)(F)F)cc4)cn3n2)[nH]c2c(F)cc(F)cc2c1=O", "READOUT_UNITS": "%", "(ii) % OCR after cccp": 158.95}
{"SMILES_ENTRY": "COc1ccc2[nH]c(-c3nc4ccc(Br)cn4n3)c(C)c(=O)c2c1", "READOUT_UNITS": "%", "(ii) % OCR after cccp": 164.4}
{"SMILES_ENTRY": "Cc1c(-c2nc3ccc(-c4ccc(F)cc4)cn3n2)[nH]c2ccccc2c1=O", "READOUT_UNITS": "%", "(ii) % OCR after cccp": 130.6}
{"SMILES_ENTRY": "Cc1c(-c2nc3ccc(C(F)(F)F)cn3n2)[nH]c2ccccc2c1=O", "READOUT_UNITS": "%", "(ii) % OCR after cccp": 100.5}
{"SMILES_ENTRY": "Cc1noc(-c2ccc3nc(-c4[nH]c5ccccc5c(=O)c4C)nn3c2)n1", "READOUT_UNITS": "%", "(ii) % OCR after cccp": 97.68}
{"SMILES_ENTRY": "Cc1c(-c2nc3ccc(-c4ccccc4)cn3n2)[nH]c2ccccc2c1=O", "READOUT_UNITS": "%", "(ii) % OCR after cccp": 169.69}
